- System: SK-MEL-28 melanoma
- experiment_summary: NCI tumour cell line growth inhibition, 48 h
value_type: TGI (µM)

| compound | value_type | units | comparison_symbol | endpoint_value |
| --- | --- | --- | --- | --- |
| COc1cc2c(cc1OCCCCOc1cc3nc(C)nc(Cl)c3cc1OC)N=C[C@@H]1CCCN1C2=O | TGI | µM | = | 5.54 |
| CC1=Nc2c(N)nc(N)nc2N(C)C1 | TGI | µM | > | 100 |
| O=c1cc(N2CCOCC2)oc2c(-c3ccc4c(c3)OCCO4)csc12 | TGI | µM | = | 11.4 |
| CCOC(=O)C1C=C1C(C)(C)O (stereo not drawn) | TGI | µM | > | 10 |
| CO/C=C(/C(=O)OC)c1ccccc1Oc1c(F)c(F)c(F)c(F)c1F | TGI | µM | > | 100 |
| Cc1ccnc2[nH]c(-c3cccc4ccccc34)cc(=O)c12 | TGI | µM | = | 40.2 |
| CC1=C2[C@H]3OC(=O)[C@@H](C)[C@@H]3CC[C@@]2(C)C=CC1=O | TGI | µM | > | 100 |
| O=C1N=C(c2c(-c3[nH]c(=O)c4ccc(Br)cc4c3O)c(O)c3ccccc3c2O)C(=O)c2cc(Br)ccc21 | TGI | µM | = | 0.926 |
| CC1(C)C(O)OC(O)C1(C)C (stereo not drawn) | TGI | µM | > | 100 |
| CCCCCc1c(Cl)nc(Cl)nc1Cl | TGI | µM | = | 46.5 |
| N#CCCN1C/C(=C/c2ccccc2)C(=O)/C(=C/c2ccccc2)C1 | TGI | µM | = | 3.54 |
| CCOC(=O)[C@@]12C(C)=CC(=O)O[C@]1(C)C[C@H]2C#N | TGI | µM | > | 100 |
| O=c1c2c3c(sc2n2c(CCl)nnc2n1Cc1ccccc1)CCCC3 | TGI | µM | = | 3.16 |
| CC1(C)CSCC(C)(C)C(=N/N)/C1=N\N | TGI | µM | > | 100 |
| COC(=O)c1ccc([C@H]2c3[nH]c4ccccc4c3C[C@H](C(=O)OC)N2C(=O)CCl)cc1 | TGI | µM | = | 6.92 |
| CCCCCCC/C(=N\N=C(N)N)c1ccc(O)cc1 | TGI | µM | = | 3.28 |
| CC(C)(C)c1ccc(-n2c3nc(=O)n(-c4ccccc4C(F)(F)F)c(=O)c-3cc3ccccc32)cc1 | TGI | µM | = | 23.5 |
| COc1ccc(-c2nc3cc(F)ccc3s2)cc1O | TGI | µM | > | 100 |
| COc1cccc(NC(=O)c2c(SC)c(C#N)c(=O)n(N)c2N)c1 | TGI | µM | > | 100 |
| CCN(CCCl)CCCCNc1c2ccccc2nc2ccc(OC)cc12 | TGI | µM | = | 8.36 |
| O=S(=O)(Cc1nc2ccccc2s1)c1nc2ccccc2s1 | TGI | µM | = | 30.5 |
| CCOC(=O)C(NC(=O)CC)(C(F)(F)F)P(=O)(OCC)OCC (stereo not drawn) | TGI | µM | > | 100 |
| O=c1[nH]c2ccccc2nc1CBr | TGI | µM | = | 25.6 |
